System: OVCAR-3 ovarian
testDescription: NCI-60 one-dose screen, 48 h
assayConditions: 10 µM unless noted
Experimental: Growth inhibition of the OVCAR-3 human tumor cell line is measured as a screen for anti-cancer activity. Cells are grown in 96 well plates and exposed to the test compound for 48 hours. Compounds are tested at a single concentration, which is 10^-5 M for most compounds. The reported endpoint is percent growth (GI% or GIPRCNT), where numbers from 0 - 100% represent growth inhibition, and numbers from -100% - 0 represent cell death. For example, a value of 40 represents 60% growth inhibition. […]
The panel holds about 83,000 compounds, 20% with a hit somewhere; the sample as a whole holds those more often. Activity calls are given as the source filed them. Rule for the calls: active = growth percent below 10; inactive = the rest.
Lab note: assign the record to one of active, inactive

Take a look at these entries with their results.
molecule | categoryLabel
O=C1c2ccc3c4c(ccc(c24)C(=O)N1CCCCO)C(=O)N(CCCCO)C3=O | inactive
O=C1c2ccccc2C(=O)c2c1ccc1[nH]c(CCl)nc21 | active
Cc1ccc(Nc2nc(N)c3ccccc3n2)cc1Cl | inactive

Challenge: Outcome? COc1ccc(-c2cc(=O)c3c(OC)c4ccoc4c(/C=C/C=O)c3o2)cc1
Response given: inactive

Challenge: Input O=C1Nc2ccccc2/C1=C/c1ccc[nH]1
Response given: inactive

Challenge: Input CC(C)(C)c1ccc(C2CC(=O)C3=C(C2)Nc2ccccc2N(C(=O)c2ccccc2Cl)C3c2ccc(F)cc2)cc1 (stereo unspecified)
Response given: active

====

Test system: HCT-116 colon
testDescription: NCI-60 one-dose screen, 48 h
assayConditions: 10 µM unless noted
About 83,000 compounds went through this panel and 20% of them were active in at least one assay; those are over-represented in the sample as a whole. Activity calls are given as the source filed them. Rule for the calls: active = growth percent below 10; inactive = the rest.
Lab note: assign the record to one of T (active), F (inactive)

compound | categoryLabel
Cn1c(/C=C(\C#N)c2ccccc2)nc2c(N3CCOCC3)nc(Cl)nc21 | T
Cc1ccc(S(=O)c2ccc([N+](=O)[O-])c3nonc23)cc1 (centres undefined) | F
COc1ccc(OC)c(/C=C/C(=O)c2c(C)nc3ccccc3c2/C=C/c2ccccc2)c1 | F
COc1cc(/C=C2\CN(C)C/C(=C\c3cc(CN4CCOCC4)c(O)c(OC)c3)C2=O)cc(CN2CCOCC2)c1O | F
O=C1NC(=S)NC(=O)C1=Cc1cn(Cc2cn(Cc3cccc4ccccc34)nn2)c2ccccc12 | F
O=C(Nc1ccc(C23CC4CC(CC(c5ccccc5)(C4)C2)C3)cc1)c1cccs1 | F
COc1ccc(Cn2c(Br)c3c(c2Br)-c2nc(NC(=O)c4ccc(OC)cc4)sc2CC3)cc1 | F
O=C(/C=C/c1ccc(Cl)cc1)c1ccc(Nc2nc(NCCO)nc(N3CCOCC3)n2)cc1 | F

Challenge: Outcome? CC[C@]1(O)C[C@@H]2CN(CCc3c([nH]c4ccccc34)[C@@](C(=O)OC)(c3cc4c(cc3OC)N(C)[C@H]3[C@@](O)(C(=O)OC)[C@H](OC(C)=O)[C@]5(CC)C=CCN6CC[C@]43[C@@H]65)C2)C1
Response given: T

====

Test system: M14 melanoma
testDescription: NCI-60 one-dose screen, 48 h
assayConditions: 10 µM unless noted
This is part of a sample that, as a whole, favours compounds with a hit. Of some 83,000 tested, about 20% had one in any assay. Calls of active or inactive are those of the source. Rule for the calls: active = growth percent below 10; inactive = the rest.
Lab note: assign the record to one of active, inactive

compound | categoryLabel
COc1ccc(-n2c(C(O)c3ccccc3)n[nH]c2=S)cc1 (stereo unspecified) | inactive

// switching to the query compound
Challenge: Outcome? CCOC(=O)c1cc2c(n1Cc1cc(OC)cc(OC)c1)-c1oncc1CCC2
Response given: inactive
